Measured viability, T/C, listed per entry.
system: 958667-338-R-J2-PDC tumor spheroids viability; experiment: Anticancer human tumor 958667-338-R-J2-PDC patient-derived colon adenocarcinoma cell line growth inhibition [PI3K]; settings: second compound 3.16 µM; first compound 0.1 µM; stronger effect = lower value; spheroids with HUVEC and MSC
MEASURE: viability, T/C (%)

* CCN1CCN(Cc2ccc(Nc3ncc(F)c(-c4cc(F)c5nc(C)n(C(C)C)c5c4)n3)nc2)CC1 + Cc1nc(NC(=O)N2CCCC2C(N)=O)sc1-c1ccnc(C(C)(C)C(F)(F)F)c1 | 47.1
* C[C@@H](NC(=O)c1ncnc(N)c1Cl)c1ncc(C(=O)Nc2cc(C(F)(F)F)c(Cl)cn2)s1 + Cc1nc(NC(=O)N2CCCC2C(N)=O)sc1-c1ccnc(C(C)(C)C(F)(F)F)c1 | 86.9
* Cn1ncnc1[C@H]1c2n[nH]c(=O)c3cc(F)cc(c23)N[C@@H]1c1ccc(F)cc1 + CC(Nc1ncnc2nc[nH]c12)c1cc2cccc(Cl)c2c(=O)n1-c1ccccc1 | 89.8
* C=CC(=O)N1CCN(c2nc(=O)n(-c3c(C)ccnc3C(C)C)c3nc(-c4c(O)cccc4F)c(F)cc23)C(C)C1 (stereo not given) + Cc1nc(NC(=O)N2CCCC2C(N)=O)sc1-c1ccnc(C(C)(C)C(F)(F)F)c1 | 73.5
* CCN1CCN(Cc2ccc(Nc3ncc(F)c(-c4cc(F)c5nc(C)n(C(C)C)c5c4)n3)nc2)CC1 + CC(Nc1ncnc2nc[nH]c12)c1cc2cccc(Cl)c2c(=O)n1-c1ccccc1 | 65.5

###

tested on: 958667-338-R-J2-PDC tumor spheroids viability; assay: Anticancer human tumor 958667-338-R-J2-PDC cell line growth inhibition [PI3K]; settings: second compound 3.16 µM; first compound 0.316 µM; stronger effect = lower value; spheroids with HUVEC and MSC;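 also: spheroids exposed to compounds for seven days before readout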
Checkbox rule: viability, T/C lower than 80% = Met; viability, T/C not lower than 80% = Not met.

* C=CC(=O)N1CCN(c2nc(=O)n(-c3c(C)ccnc3C(C)C)c3nc(-c4c(O)cccc4F)c(F)cc23)C(C)C1 (stereo unspecified) + Cc1nc(NC(=O)N2CCCC2C(N)=O)sc1-c1ccnc(C(C)(C)C(F)(F)F)c1 | Met
* CCCS(=O)(=O)Nc1ccc(F)c(C(=O)c2c[nH]c3ncc(-c4ccc(Cl)cc4)cc23)c1F + CC(Nc1ncnc2nc[nH]c12)c1cc2cccc(Cl)c2c(=O)n1-c1ccccc1 | Not met
* C[C@@H](NC(=O)c1ncnc(N)c1Cl)c1ncc(C(=O)Nc2cc(C(F)(F)F)c(Cl)cn2)s1 + CC(Nc1ncnc2nc[nH]c12)c1cc2cccc(Cl)c2c(=O)n1-c1ccccc1 | Not met
* CCN1CCN(Cc2ccc(Nc3ncc(F)c(-c4cc(F)c5nc(C)n(C(C)C)c5c4)n3)nc2)CC1 + Cc1nc(NC(=O)N2CCCC2C(N)=O)sc1-c1ccnc(C(C)(C)C(F)(F)F)c1 | Met
* CC(Cn1ccc(-c2ccc(C#N)c(Cl)c2)n1)NC(=O)c1cc(C(C)O)[nH]n1 (stereo unspecified) + Cc1nc(NC(=O)N2CCCC2C(N)=O)sc1-c1ccnc(C(C)(C)C(F)(F)F)c1 | Met
* CC(C)NCC(C(=O)N1CCN(c2ncnc3c2C(C)CC3O)CC1)c1ccc(Cl)cc1 (stereo unspecified) + Cc1nc(NC(=O)N2CCCC2C(N)=O)sc1-c1ccnc(C(C)(C)C(F)(F)F)c1 | Met
* CC1(C)CCC(Nc2ncc(C(F)(F)F)c(-c3c[nH]c4c(P(C)(C)=O)c(C#N)ccc34)n2)CN1 (stereo unspecified) + Cc1nc(NC(=O)N2CCCC2C(N)=O)sc1-c1ccnc(C(C)(C)C(F)(F)F)c1 | Met
* CC(Cn1ccc(-c2ccc(C#N)c(Cl)c2)n1)NC(=O)c1cc(C(C)O)[nH]n1 (stereo unspecified) + CC(Nc1ncnc2nc[nH]c12)c1cc2cccc(Cl)c2c(=O)n1-c1ccccc1 | Not met
* CC1(C)CCC(CN2CCN(c3ccc(C(=O)NS(=O)(=O)c4ccc(NCC5CCOCC5)c([N+](=O)[O-])c4)c(Oc4cnc5[nH]ccc5c4)c3)CC2)=C(c2ccc(Cl)cc2)C1 + Cc1nc(NC(=O)N2CCCC2C(N)=O)sc1-c1ccnc(C(C)(C)C(F)(F)F)c1 | Met
* CC1(C)CCC(Nc2ncc(C(F)(F)F)c(-c3c[nH]c4c(P(C)(C)=O)c(C#N)ccc34)n2)CN1 (stereo unspecified) + CC(Nc1ncnc2nc[nH]c12)c1cc2cccc(Cl)c2c(=O)n1-c1ccccc1 | Not met
* Cn1nccc1Nc1nccc(-c2ccn(C(CO)c3ccc(Cl)c(F)c3)c(=O)c2)n1 (stereo unspecified) + CC(Nc1ncnc2nc[nH]c12)c1cc2cccc(Cl)c2c(=O)n1-c1ccccc1 | Met
* C#Cc1c(F)ccc2cc(O)cc(-c3ncc4c(N5CC6CCC(C5)N6)nc(OCC56CCCN5CC(F)C6)nc4c3F)c12 (stereo unspecified) + Cc1nc(NC(=O)N2CCCC2C(N)=O)sc1-c1ccnc(C(C)(C)C(F)(F)F)c1 | Met
* CCCS(=O)(=O)Nc1ccc(F)c(C(=O)c2c[nH]c3ncc(-c4ccc(Cl)cc4)cc23)c1F + Cc1nc(NC(=O)N2CCCC2C(N)=O)sc1-c1ccnc(C(C)(C)C(F)(F)F)c1 | Met
* Cn1ncc(Cl)c1-c1cc(C(=O)NC(CN)Cc2cccc(F)c2)sc1Cl (stereo unspecified) + CC(Nc1ncnc2nc[nH]c12)c1cc2cccc(Cl)c2c(=O)n1-c1ccccc1 | Not met
* CNC(=O)c1ccc(N2C(=S)N(c3ccc(C#N)c(C(F)(F)F)c3)C(=O)C2(C)C)cc1F + Cc1nc(NC(=O)N2CCCC2C(N)=O)sc1-c1ccnc(C(C)(C)C(F)(F)F)c1 | Met
* CCN1CCN(Cc2ccc(Nc3ncc(F)c(-c4cc(F)c5nc(C)n(C(C)C)c5c4)n3)nc2)CC1 + CC(Nc1ncnc2nc[nH]c12)c1cc2cccc(Cl)c2c(=O)n1-c1ccccc1 | Met
* Cn1ncc(Cl)c1-c1cc(C(=O)NC(CN)Cc2cccc(F)c2)sc1Cl (stereo unspecified) + Cc1nc(NC(=O)N2CCCC2C(N)=O)sc1-c1ccnc(C(C)(C)C(F)(F)F)c1 | Met
* C#Cc1c(F)ccc2cc(O)cc(-c3ncc4c(N5CC6CCC(C5)N6)nc(OCC56CCCN5CC(F)C6)nc4c3F)c12 (stereo unspecified) + CC(Nc1ncnc2nc[nH]c12)c1cc2cccc(Cl)c2c(=O)n1-c1ccccc1 | Not met
* C[C@@H](NC(=O)c1ncnc(N)c1Cl)c1ncc(C(=O)Nc2cc(C(F)(F)F)c(Cl)cn2)s1 + Cc1nc(NC(=O)N2CCCC2C(N)=O)sc1-c1ccnc(C(C)(C)C(F)(F)F)c1 | Not met
* CC(C)NCC(C(=O)N1CCN(c2ncnc3c2C(C)CC3O)CC1)c1ccc(Cl)cc1 (stereo unspecified) + CC(Nc1ncnc2nc[nH]c12)c1cc2cccc(Cl)c2c(=O)n1-c1ccccc1 | Not met
* CNC(=O)c1ccc(N2C(=S)N(c3ccc(C#N)c(C(F)(F)F)c3)C(=O)C2(C)C)cc1F + CC(Nc1ncnc2nc[nH]c12)c1cc2cccc(Cl)c2c(=O)n1-c1ccccc1 | Met

###

test system: 958667-338-R-J2-PDC tumor spheroids viability; assay: Anticancer human tumor 958667-338-R-J2-PDC cell line growth inhibition [PI3K]; settings: second compound 0.0316 µM; first compound 3.16 µM; stronger effect = lower value; spheroids with HUVEC and MSC;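 also: spheroids exposed to compounds for seven days before readout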
Measured viability, T/C, listed per entry.
MEASURE: viability, T/C (%)

* CC(Cn1ccc(-c2ccc(C#N)c(Cl)c2)n1)NC(=O)c1cc(C(C)O)[nH]n1 (centres undefined) + CC(Nc1ncnc2nc[nH]c12)c1cc2cccc(Cl)c2c(=O)n1-c1ccccc1 | 114
* CCCS(=O)(=O)Nc1ccc(F)c(C(=O)c2c[nH]c3ncc(-c4ccc(Cl)cc4)cc23)c1F + CC(Nc1ccc2c(c1)OCCn1cc(N3C(=O)OCC3C(F)F)nc1-2)C(N)=O | 76.7
* C[C@@H](NC(=O)c1ncnc(N)c1Cl)c1ncc(C(=O)Nc2cc(C(F)(F)F)c(Cl)cn2)s1 + CC(Nc1ncnc2nc[nH]c12)c1cc2cccc(Cl)c2c(=O)n1-c1ccccc1 | 84.1
* Cn1ncc(Cl)c1-c1cc(C(=O)NC(CN)Cc2cccc(F)c2)sc1Cl (centres undefined) + Cc1nc(NC(=O)N2CCCC2C(N)=O)sc1-c1ccnc(C(C)(C)C(F)(F)F)c1 | 44.7

###

tested on: 958667-338-R-J2-PDC tumor spheroids viability; assay: Anticancer human tumor 958667-338-R-J2-PDC cell line growth inhibition [PI3K]; details: second compound 0.01 µM; first compound 3.16 µM; stronger effect = lower value; spheroids with HUVEC and MSC;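 also: spheroids exposed to compounds for seven days before readout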
Measured viability, T/C, listed per entry.
MEASURE: viability, T/C (%)

* Cn1nccc1Nc1nccc(-c2ccn(C(CO)c3ccc(Cl)c(F)c3)c(=O)c2)n1 (stereo not given) + COc1c(OCCCN2CCOCC2)ccc2c3n(c(=NC(=O)c4cnc(N)nc4)nc12)CCN3 | 81.6
* C[C@@H](NC(=O)c1ncnc(N)c1Cl)c1ncc(C(=O)Nc2cc(C(F)(F)F)c(Cl)cn2)s1 + COc1c(OCCCN2CCOCC2)ccc2c3n(c(=NC(=O)c4cnc(N)nc4)nc12)CCN3 | 69.9
* CC1(C)CCC(CN2CCN(c3ccc(C(=O)NS(=O)(=O)c4ccc(NCC5CCOCC5)c([N+](=O)[O-])c4)c(Oc4cnc5[nH]ccc5c4)c3)CC2)=C(c2ccc(Cl)cc2)C1 + CC(Nc1ccc2c(c1)OCCn1cc(N3C(=O)OCC3C(F)F)nc1-2)C(N)=O | 86.3
* CCCS(=O)(=O)Nc1ccc(F)c(C(=O)c2c[nH]c3ncc(-c4ccc(Cl)cc4)cc23)c1F + CC(Nc1ccc2c(c1)OCCn1cc(N3C(=O)OCC3C(F)F)nc1-2)C(N)=O | 130
* C#Cc1c(F)ccc2cc(O)cc(-c3ncc4c(N5CC6CCC(C5)N6)nc(OCC56CCCN5CC(F)C6)nc4c3F)c12 (stereo not given) + CC(Nc1ccc2c(c1)OCCn1cc(N3C(=O)OCC3C(F)F)nc1-2)C(N)=O | 74.2
